Entry source: patent US5514694A

Target: calpain II from rabbit
Experiment: Calpain II inhibition, Suc-Leu-Tyr-AMC hydrolysis (KI)
Format: biochemical
Details: Table 1, Z-Leu--AA--CONHR; read-out: KI Cal II
pKi: −log10 of the molar value.
ASSAY_ENDPOINT: pKi

INSERT INTO assay_data (compound, experimental_target, assay_endpoint, result) VALUES
  ('CCC(NC(=O)C(CC(C)C)NC(=O)OCc1ccccc1)C(=O)C(=O)NCC1CCCO1 (stereo not drawn) [Z-Leu-Abu-CONH-CH2 -2-tetrahydrofuryl, Z-Leu-Abu-CONH--CH2 -2-Tetrahydrofuryl]', 'calpain II from rabbit', 'pKi', 7.18),
  ('CCCC(NC(=O)C(CC(C)C)NC(=O)OCc1ccccc1)C(=O)C(=O)NCCCN1CCOCC1 (stereo not drawn) [Z-Leu-Nva-CONH-(CH2)3 -4-morpholinyl, Z-Leu-Nva-CONH--(CH2)3 -4-Morpholinyl]', 'calpain II from rabbit', 'pKi', 7.00),
  ('CCC(NC(=O)C(CC(C)C)NC(=O)OCc1ccccc1)C(=O)C(=O)NCCCn1ccnc1 (stereo not drawn) [Z-Leu-Abu-CONH-(CH2)3 -1-imidazolyl, Z-Leu-Abu-CONH--(CH2)3 -1-Imidazolyl]', 'calpain II from rabbit', 'pKi', 7.17),
  ('CCCC(NC(=O)C(CC(C)C)NC(=O)OCc1ccccc1)C(=O)C(=O)NCc1ccccn1 (stereo not drawn) [Z-Leu-Nva-CONH-CH2 -2-pyridyl, Z-Leu-Nva-CONH--CH2 -2-Pyridyl]', 'calpain II from rabbit', 'pKi', 6.92),
  ('CCC(NC(=O)C(CC(C)C)NC(=O)OCc1ccccc1)C(=O)C(=O)NCC1(C)CC(O)CC(C)(C)C1 (centres unmarked)', 'calpain II from rabbit', 'pKi', 7.16);

====

This document collects Ki values reported for human leukocyte elastase (HLE) (Homo sapiens, UniProt P08246).
ASSAY_ENDPOINT: Ki (µM)

INSERT INTO results (molecule, assay_endpoint, result) VALUES
  ('CCCCNC(=O)C(=O)C(Cc1ccccc1)NC(=O)C(CC(C)C)NC(=O)OCc1ccccc1 (centres unmarked)', 'Ki', 11),
  ('CC[C@H](NC(=O)[C@H](CC(C)C)NC(=O)OCc1ccccc1)C(=O)C(=O)NCC(O)c1ccc(N(C)C)cc1 (some centres unmarked)', 'Ki', 19);

====

Molecular target: Calpain I from human erythrocytes (Homo sapiens)
Construct: Calpain I was purified from human erythrocytes; from tissue; host or cells: human erythrocytes
Sequence (P07384 whole entry): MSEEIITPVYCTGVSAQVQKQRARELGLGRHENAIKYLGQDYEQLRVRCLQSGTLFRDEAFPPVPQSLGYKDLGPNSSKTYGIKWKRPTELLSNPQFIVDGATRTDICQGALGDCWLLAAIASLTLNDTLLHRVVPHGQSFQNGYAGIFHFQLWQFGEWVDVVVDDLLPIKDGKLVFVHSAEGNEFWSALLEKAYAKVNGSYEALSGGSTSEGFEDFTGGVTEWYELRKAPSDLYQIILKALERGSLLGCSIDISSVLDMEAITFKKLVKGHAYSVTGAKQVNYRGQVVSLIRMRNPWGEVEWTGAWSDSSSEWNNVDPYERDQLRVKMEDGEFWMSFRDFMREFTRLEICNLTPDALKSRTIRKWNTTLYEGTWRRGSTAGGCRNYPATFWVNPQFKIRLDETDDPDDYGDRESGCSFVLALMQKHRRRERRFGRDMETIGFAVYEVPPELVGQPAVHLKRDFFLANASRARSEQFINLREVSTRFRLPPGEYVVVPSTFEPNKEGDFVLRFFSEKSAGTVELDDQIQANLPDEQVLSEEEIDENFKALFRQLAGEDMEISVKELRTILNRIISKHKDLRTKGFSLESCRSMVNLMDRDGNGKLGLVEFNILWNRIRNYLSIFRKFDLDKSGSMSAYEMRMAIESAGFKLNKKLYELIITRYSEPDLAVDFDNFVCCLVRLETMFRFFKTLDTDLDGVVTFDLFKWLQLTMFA
Sequence (P04632 whole entry partner): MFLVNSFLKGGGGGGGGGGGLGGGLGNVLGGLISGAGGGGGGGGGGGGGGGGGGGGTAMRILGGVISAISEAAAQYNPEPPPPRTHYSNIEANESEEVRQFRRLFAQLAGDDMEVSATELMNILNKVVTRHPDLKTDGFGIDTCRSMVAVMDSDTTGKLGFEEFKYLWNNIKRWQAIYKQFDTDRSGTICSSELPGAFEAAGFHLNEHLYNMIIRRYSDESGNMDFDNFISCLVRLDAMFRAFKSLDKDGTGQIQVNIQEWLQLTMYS
Assay: Calpain I inhibition, Suc-Leu-Tyr-AMC hydrolysis (KI)
Format: biochemical
Details: Table 2, Z-Leu--AA--CONH--CH2 CH(OH)-R; read-out: KI Cal I
pKi: −log10 of the molar value.
Known pKi of a selection of compounds
ASSAY_ENDPOINT: pKi

INSERT INTO results (compound, assay_endpoint, result) VALUES
  ('CCC(NC(=O)C(CC(C)C)NC(=O)OCc1ccccc1)C(=O)C(=O)NCC(O)c1ccc(OCc2ccccc2)c(OCc2ccccc2)c1 (stereo not drawn)', 'pKi', 6.64),
  ('CCC(NC(=O)C(CC(C)C)NC(=O)OCc1ccccc1)C(=O)C(=O)NCC(O)c1cccc(Oc2ccc(Cl)c(Cl)c2)c1 (stereo not drawn)', 'pKi', 6.57),
  ('CCC(NC(=O)C(CC(C)C)NC(=O)OCc1ccccc1)C(=O)C(=O)NCC(O)c1ccccc1 (stereo not drawn) [Z-Leu-Abu-CONH-CH2 CH(OH)-Ph, Z-Leu-Abu-CONH--CH2 CH(OH)Ph]', 'pKi', 5.96),
  ('CC[C@H](NC(=O)[C@H](CC(C)C)NC(=O)OCc1ccccc1)C(=O)C(=O)NCC(O)c1ccc(N(C)C)cc1 (stereo partly drawn)', 'pKi', 6.48),
  ('CC(C)C[C@H](NC(=O)OCc1ccccc1)C(=O)N[C@@H](Cc1ccccc1)C(=O)C(=O)NCC(O)c1ccccc1 (stereo partly drawn) [Z-Leu-Phe-CONH-CH2 CH(OH)-Ph, Z-Leu-Phe-CONH--CH2 CH(OH)Ph]', 'pKi', 5.89),
  ('CC(C)CC(NC(=O)OCc1ccccc1)C(=O)NC(Cc1ccccc1)C(=O)C(=O)NCC(O)c1cccc(Oc2ccc(Cl)c(Cl)c2)c1 (stereo not drawn)', 'pKi', 6.23),
  ('CC[C@H](NC(=O)[C@H](CC(C)C)NC(=O)OCc1ccccc1)C(=O)C(=O)NCC(O)c1ccc(OCc2ccccc2)cc1 (stereo partly drawn)', 'pKi', 7.10),
  ('CCC(NC(=O)C(CC(C)C)NC(=O)OCc1ccccc1)C(=O)C(=O)NCC(O)c1cccc2ccccc12 (stereo not drawn) [Z-Leu-Abu-CONH-CH2 CH(OH)-1-C10 H7, Z-Leu-Abu-CONH--CH2 CH(OH)-1-C10 H7]', 'pKi', 6.92),
  ('CC(C)C[C@H](NC(=O)OCc1ccccc1)C(=O)N[C@@H](Cc1ccccc1)C(=O)C(=O)NCC(O)c1ccc(N(C)C)cc1 (stereo partly drawn)', 'pKi', 6.21),
  ('CCCC(NC(=O)C(CC(C)C)NC(=O)OCc1ccccc1)C(=O)C(=O)NCC(O)c1ccccc1 (stereo not drawn) [Z-Leu-Nva-CONH-CH2 CH(OH)-Ph, Z-Leu-Nva-CONH--CH2 CH(OH)Ph]', 'pKi', 5.11),
  ('CC(C)CC(NC(=O)OCc1ccccc1)C(=O)NC(Cc1ccccc1)C(=O)C(=O)NCC(O)c1cccc(Oc2ccccc2)c1 (stereo not drawn) [Z-Leu-Phe-CONH-CH2 CH(OH)-C6 H4 (3-OPh), Z-Leu-Phe-CONH--CH2 CH(OH)C6 H4 (3-OPh)]', 'pKi', 6.22),
  ('CCC(NC(=O)C(CC(C)C)NC(=O)OCc1ccccc1)C(=O)C(=O)NCC(O)c1ccc2ccccc2c1 (stereo not drawn) [Z-Leu-Abu-CONH-CH2 CH(OH)-2-C10 H7, Z-Leu-Abu-CONH--CH2 CH(OH)-2-C10 H7]', 'pKi', 6.46);
